- test.target: Voltage-dependent T-type calcium channel subunit alpha-1H (Homo sapiens) (UniProt O95180)
- Sequence (O95180 whole entry): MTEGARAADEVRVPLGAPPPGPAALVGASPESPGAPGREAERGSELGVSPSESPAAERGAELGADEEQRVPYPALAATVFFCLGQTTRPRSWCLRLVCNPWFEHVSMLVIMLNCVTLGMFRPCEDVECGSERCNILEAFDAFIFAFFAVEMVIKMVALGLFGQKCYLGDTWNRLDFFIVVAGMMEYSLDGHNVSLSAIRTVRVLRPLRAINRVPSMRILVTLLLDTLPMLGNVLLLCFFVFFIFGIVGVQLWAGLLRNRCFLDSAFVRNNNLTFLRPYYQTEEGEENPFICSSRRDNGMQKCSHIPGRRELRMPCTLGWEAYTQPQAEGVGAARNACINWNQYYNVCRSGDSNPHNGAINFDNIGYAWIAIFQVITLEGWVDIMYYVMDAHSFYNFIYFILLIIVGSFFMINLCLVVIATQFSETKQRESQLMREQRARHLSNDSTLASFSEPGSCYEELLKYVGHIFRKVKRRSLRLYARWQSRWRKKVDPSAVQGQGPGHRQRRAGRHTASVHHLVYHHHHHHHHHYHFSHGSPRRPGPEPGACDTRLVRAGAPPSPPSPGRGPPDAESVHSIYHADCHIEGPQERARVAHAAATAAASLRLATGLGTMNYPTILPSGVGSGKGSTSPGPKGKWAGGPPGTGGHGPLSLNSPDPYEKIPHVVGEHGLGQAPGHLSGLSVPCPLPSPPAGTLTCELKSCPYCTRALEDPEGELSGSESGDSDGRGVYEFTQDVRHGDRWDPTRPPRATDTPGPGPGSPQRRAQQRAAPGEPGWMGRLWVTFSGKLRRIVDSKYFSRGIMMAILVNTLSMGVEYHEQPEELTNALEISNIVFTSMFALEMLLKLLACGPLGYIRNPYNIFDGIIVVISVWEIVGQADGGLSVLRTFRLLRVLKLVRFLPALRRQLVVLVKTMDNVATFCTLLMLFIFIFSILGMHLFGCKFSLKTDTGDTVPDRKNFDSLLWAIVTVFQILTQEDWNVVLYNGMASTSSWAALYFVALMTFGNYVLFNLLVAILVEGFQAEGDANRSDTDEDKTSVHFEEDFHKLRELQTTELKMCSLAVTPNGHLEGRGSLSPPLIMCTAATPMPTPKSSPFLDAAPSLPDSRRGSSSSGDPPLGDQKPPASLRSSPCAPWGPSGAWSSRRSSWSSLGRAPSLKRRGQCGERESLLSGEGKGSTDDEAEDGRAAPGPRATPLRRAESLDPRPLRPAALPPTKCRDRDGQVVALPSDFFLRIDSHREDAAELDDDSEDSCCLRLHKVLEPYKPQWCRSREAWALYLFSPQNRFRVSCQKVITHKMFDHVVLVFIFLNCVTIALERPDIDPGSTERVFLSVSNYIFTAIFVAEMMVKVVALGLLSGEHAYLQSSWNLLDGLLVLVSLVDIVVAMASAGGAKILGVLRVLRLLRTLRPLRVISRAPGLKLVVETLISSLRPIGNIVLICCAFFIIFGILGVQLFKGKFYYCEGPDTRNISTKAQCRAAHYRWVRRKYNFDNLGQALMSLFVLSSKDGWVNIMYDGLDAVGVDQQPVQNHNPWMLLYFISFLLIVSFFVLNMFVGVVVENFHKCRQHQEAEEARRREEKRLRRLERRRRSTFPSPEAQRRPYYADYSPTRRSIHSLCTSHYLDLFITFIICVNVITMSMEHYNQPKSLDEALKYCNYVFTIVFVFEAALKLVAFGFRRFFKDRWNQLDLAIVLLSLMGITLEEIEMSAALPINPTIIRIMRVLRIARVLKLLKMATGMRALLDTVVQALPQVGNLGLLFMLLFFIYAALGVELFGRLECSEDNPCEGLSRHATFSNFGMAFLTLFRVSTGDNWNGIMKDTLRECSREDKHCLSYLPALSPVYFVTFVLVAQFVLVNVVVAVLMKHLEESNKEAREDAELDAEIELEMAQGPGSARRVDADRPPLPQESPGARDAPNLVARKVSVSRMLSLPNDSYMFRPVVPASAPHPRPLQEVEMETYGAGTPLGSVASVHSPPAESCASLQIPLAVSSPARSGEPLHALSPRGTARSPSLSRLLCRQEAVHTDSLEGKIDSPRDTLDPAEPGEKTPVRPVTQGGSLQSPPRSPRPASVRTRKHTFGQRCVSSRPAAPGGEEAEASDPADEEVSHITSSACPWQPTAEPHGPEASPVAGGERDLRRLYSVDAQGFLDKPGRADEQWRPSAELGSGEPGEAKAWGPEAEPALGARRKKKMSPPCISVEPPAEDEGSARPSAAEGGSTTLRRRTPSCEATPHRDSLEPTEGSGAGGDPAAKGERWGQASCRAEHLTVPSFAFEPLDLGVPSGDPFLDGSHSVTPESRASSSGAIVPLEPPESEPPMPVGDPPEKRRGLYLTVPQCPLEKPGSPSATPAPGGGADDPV
- measurement.description: Antagonist activity against T-type calcium channel subunit alpha-1H assessed as inactivation of channel current at 3 uM by cell based patch clamp assay
- Format: functional
assay.readout: inhibition (%)

Example entries and their recorded answers appear below.
>  <smi>
O=C1N(Cc2ccc(Cl)cc2)CCC12CCN(Cc1ccc(F)cc1)CC2

>  <inhibition [%]>
65

$$$$
>  <smi>
CC(C)N1CCC2(CCN(C(c3ccc(F)cc3)c3ccc(F)cc3)CC2)C1=O

>  <inhibition [%]>
57

$$$$

P: O=C1N(Cc2ccc(Cl)cc2)CCC12CCN(S(=O)(=O)c1ccc(F)cc1)CC2
Q: CCOc1ccccc1CN1CCC2(CC1)CCN(Cc1ccc(Cl)cc1)C2=O
**Query** I'd appreciate it if you could identify which of P and Q has the greater inhibition. Reply briefly: the label of your chosen item.
**Result** Q
(Q: 67%, P: 45%)
